Values were extracted from paper PMC5818740.

Target: PICK1 (protein interacting with kinase C1), PDZ domain (Homo sapiens, UniProt Q9NRD5)
Sequence (Q9NRD5 1-357 limits assumed): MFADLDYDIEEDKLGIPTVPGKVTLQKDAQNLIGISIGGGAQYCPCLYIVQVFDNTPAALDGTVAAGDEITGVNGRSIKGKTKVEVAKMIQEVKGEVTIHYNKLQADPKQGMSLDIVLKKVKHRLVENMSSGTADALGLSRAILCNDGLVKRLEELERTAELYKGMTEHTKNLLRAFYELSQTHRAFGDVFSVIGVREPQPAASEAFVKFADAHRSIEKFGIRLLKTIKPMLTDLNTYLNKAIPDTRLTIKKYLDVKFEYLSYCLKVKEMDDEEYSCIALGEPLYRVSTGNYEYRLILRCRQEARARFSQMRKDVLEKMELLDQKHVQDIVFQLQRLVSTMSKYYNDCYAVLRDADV
MEASURED_PROPERTY: IC50 (nM)
Form entry: value (nM) — number only.

For CC(C)(C)OC(=O)N1CCC[C@H]1C(=O)N1CCC(C(=O)N[C@H](C(=O)O)C2CCCC2)(c2ccc(Br)cc2)CC1 the compound record lists IC50 as 513
